So I've got a bunch of compounds here, and I need their pKi values.
- TARGET DESC: Induced myeloid leukemia cell differentiation protein Mcl-1 (Homo sapiens, UniProt Q07820)
- Sequence (Q07820 whole entry, the tested form may be a part): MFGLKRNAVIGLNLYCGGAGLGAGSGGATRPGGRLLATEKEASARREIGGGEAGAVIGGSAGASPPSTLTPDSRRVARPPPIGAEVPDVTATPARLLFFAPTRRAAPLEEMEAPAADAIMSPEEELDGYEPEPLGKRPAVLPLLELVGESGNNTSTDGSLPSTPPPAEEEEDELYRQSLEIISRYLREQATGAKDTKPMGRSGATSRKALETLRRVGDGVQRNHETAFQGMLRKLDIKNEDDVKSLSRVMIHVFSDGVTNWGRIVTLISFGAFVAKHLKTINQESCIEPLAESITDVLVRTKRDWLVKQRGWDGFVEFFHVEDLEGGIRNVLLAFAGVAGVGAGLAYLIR
- ASSAY: Inhibition of FITC-labeled Bak-BH3 peptide binding to MCL1 (172 to 371 residues) (unknown origin) by fluorescence polarization competition assay
Give bare numbers, as −log10 of the molar value.

[
  {
    "COMPOUND": "Cc1cc(Oc2ccc(/C=C3\\SC(=O)N([C@@H](C)C(=O)O)C3=O)cc2)cc(C)c1Cl",
    "MEASURED PROPERTY": "pKi",
    "RECORDED MEASUREMENT": 5.71
  },
  {
    "COMPOUND": "Cc1cc(Oc2ccc(/C=C3\\SC(=O)N([C@H](C)C(=O)O)C3=O)cc2)cc(C)c1Cl",
    "MEASURED PROPERTY": "pKi",
    "RECORDED MEASUREMENT": 5.56
  },
  {
    "COMPOUND": "Cc1cc(Oc2ccc(/C=C3\\SC(=O)N([C@@H](CC(C)C)C(=O)O)C3=O)cc2Br)cc(C)c1Cl",
    "MEASURED PROPERTY": "pKi",
    "RECORDED MEASUREMENT": 6.10
  },
  {
    "COMPOUND": "CC(C)C[C@@H](C(=O)O)N1C(=O)S/C(=C\\c2cccc(Br)c2)C1=O",
    "MEASURED PROPERTY": "pKi",
    "RECORDED MEASUREMENT": 5.67
  },
  {
    "COMPOUND": "Cc1cc(Oc2ccc(/C=C3\\SC(=O)N([C@@H](Cc4ccccc4)C(=O)O)C3=O)cc2)cc(C)c1Cl",
    "MEASURED PROPERTY": "pKi",
    "RECORDED MEASUREMENT": 6.81
  }
]

Please give pKi for each item listed below.
1. Cc1cc(Oc2ccc(CC3SC(=O)N(CC(=O)O)C3=O)cc2)cc(C)c1Cl (centres undefined)
2. Cc1cc(Oc2ccc(/C=C3\SC(=O)N([C@H](CC(C)C)C(=O)O)C3=O)cc2)cc(C)c1Cl

Data returned:
4.99
6.00
